Items are presented alongside their recorded fold change of affinity.
SYSTEM_UNDER_TEST: T1, Human CD137 ECD (human)
T1 construct: also called 4-1BB
METHOD: SPR, vs parent H183/L072
ENDPOINT: fold change of affinity (fold)

dBBDu183H V63D / dBBDu072L (antibody, name in Kabat numbering, V domains shown, as m1, one VH change) VH: QVQLVESGGGLVQPGRSLRLSCAASGFTFSNAWMHWVRQAPGKGLEWVAQIKDKGNAYAAYYAPSDKGRFTISRDDSKNSIYLQMNSLKTEDTAVYYCHYVHYASASTVLPAFGVDAWGQGTTVTVSS VL: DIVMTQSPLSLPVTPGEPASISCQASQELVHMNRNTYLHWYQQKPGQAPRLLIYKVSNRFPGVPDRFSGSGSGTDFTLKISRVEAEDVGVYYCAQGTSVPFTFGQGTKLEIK	0.9
dBBDu183H P100eT / dBBDu072L (antibody, name in Kabat numbering, V domains shown, as m1, one VH change) VH: QVQLVESGGGLVQPGRSLRLSCAASGFTFSNAWMHWVRQAPGKGLEWVAQIKDKGNAYAAYYAPSVKGRFTISRDDSKNSIYLQMNSLKTEDTAVYYCHYVHYASASTVLTAFGVDAWGQGTTVTVSS VL: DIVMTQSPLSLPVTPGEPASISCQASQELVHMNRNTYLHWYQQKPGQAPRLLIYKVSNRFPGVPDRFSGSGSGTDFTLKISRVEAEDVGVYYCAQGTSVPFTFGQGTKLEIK	0.2
dBBDu183H T100bS / dBBDu072L (antibody, name in Kabat numbering, V domains shown, as m1, one VH change) VH: QVQLVESGGGLVQPGRSLRLSCAASGFTFSNAWMHWVRQAPGKGLEWVAQIKDKGNAYAAYYAPSVKGRFTISRDDSKNSIYLQMNSLKTEDTAVYYCHYVHYASASSVLPAFGVDAWGQGTTVTVSS VL: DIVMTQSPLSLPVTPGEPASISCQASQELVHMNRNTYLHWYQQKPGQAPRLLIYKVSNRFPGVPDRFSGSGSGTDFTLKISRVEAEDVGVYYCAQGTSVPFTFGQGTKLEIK	1

// data source = patent US20210388087A1
